test system: Staphylococcus aureus 757 (MRSA); experiment: MIC by broth microdilution, SA 757; format: cell-based; details: Staphylococcus aureus, MRSA, read-out: MIC SA 757
Readout label: MIC

>>> experimental_value("CCCCc1ccc(NC(=O)Oc2cc(O)c3c(c2)[C@@H](C(=O)NC2C4CC5CC(C4)CC2C5)NC(=O)[C@H]2NC(=O)[C@H](NC(=O)[C@@H]4NC(=O)[C@H](CC(N)=O)NC(=O)[C@H](NC(=O)[C@@H](CC(C)C)NC)[C@H](O)c5ccc(c(Cl)c5)Oc5cc4cc(c5O[C@@H]4O[C@H](CO)[C@@H](O)[C@H](O)[C@H]4O[C@H]4C[C@](C)(N)[C@H](O)[C@H](C)O4)Oc4ccc(cc4Cl)[C@H]2O)c2ccc(O)c-3c2)cc1 (stereo partly drawn)")
"0.01 to 0.5 µg/mL"
>>> experimental_value("CN[C@H](CC(C)C)C(=O)N[C@H]1C(=O)N[C@@H](CC(N)=O)C(=O)N[C@H]2C(=O)N[C@H]3C(=O)N[C@H](C(=O)N[C@H](C(=O)O)c4cc(O)cc(O)c4-c4cc3ccc4O)[C@H](O)c3ccc(c(Cl)c3)Oc3cc2cc(c3O[C@@H]2O[C@H](CO)[C@@H](O)[C@H](O)[C@H]2O[C@H]2C[C@](C)(N)[C@H](O)[C@H](C)O2)Oc2ccc(cc2Cl)[C@H]1O [Vancomycin, vancomycin, reference compound]")
"1 µg/mL"
>>> experimental_value("CCCCCCOc1ccc(S(=O)(=O)NCCCCCCNC(=O)Oc2cc(O)c3c(c2)[C@@H](C(=O)O)NC(=O)[C@H]2NC(=O)[C@H](NC(=O)[C@@H]4NC(=O)[C@H](CC(N)=O)NC(=O)[C@H](NC(=O)[C@@H](CC(C)C)NC)[C@H](O)c5ccc(c(Cl)c5)Oc5cc4cc(c5O[C@@H]4O[C@H](CO)[C@@H](O)[C@H](O)[C@H]4O[C@H]4C[C@](C)(N)[C@H](O)[C@H](C)O4)Oc4ccc(cc4Cl)[C@H]2O)c2ccc(O)c-3c2)cc1 (atropisomer, axis not shown)")
"0.01 to 0.5 µg/mL"

---

Tested on: Staphylococcus aureus 2012 (VISA)
Experiment: MIC by broth microdilution, SA 2012
Type: cell-based
Settings: Staphylococcus aureus 2012 (VISA); class symbols; read-out: MIC SA 2012
Experimental: Antibacterial activity in vitro is investigated by broth microdilution method in Meuller-Hinton broth as recommended by NCCLS. All strains tested are clinical isolates either sensitive or resistant to natural glycopeptides. MIC values were determined using the CLSI-recommended broth microdilution procedure (Clinical and Laboratory Standards Institute, Methods for Dilution Antimicrobial Susceptibility Tests for Bacteria That Grow Aerobically; Approved Standard-Seventh Edition.). […]
Readout label: MIC

>>> experimental_value("CCCCCOc1ccc(S(=O)(=O)NCCCCCCNCc2c(O)cc3c(c2O)-c2cc(ccc2O)[C@H]2NC(=O)[C@@H]4NC(=O)[C@H](CC(N)=O)NC(=O)[C@H](NC(=O)[C@@H](CC(C)C)NC)[C@H](O)c5ccc(c(Cl)c5)Oc5cc4cc(c5O[C@@H]4O[C@H](CO)[C@@H](O)[C@H](O)[C@H]4O[C@H]4C[C@](C)(NC(=O)[C@@H](C)N)[C@H](O)[C@H](C)O4)Oc4ccc(cc4Cl)[C@@H](O)[C@H](NC2=O)C(=O)N[C@@H]3C(=O)O)cc1 (atropisomer, axis not shown)")
"0.01 to 0.5 µg/mL"
>>> experimental_value("CCCCCCc1ccc(NC(=O)NCCCCCCNCc2c(O)cc3c(c2O)-c2cc(ccc2O)[C@H]2NC(=O)[C@@H]4NC(=O)[C@H](CC(N)=O)NC(=O)[C@H](NC(=O)[C@@H](CC(C)C)NC)[C@H](O)c5ccc(c(Cl)c5)Oc5cc4cc(c5O[C@@H]4O[C@H](CO)[C@@H](O)[C@H](O)[C@H]4O[C@H]4C[C@](C)(NC(=O)NC5CC5)[C@H](O)[C@H](C)O4)Oc4ccc(cc4Cl)[C@@H](O)[C@H](NC2=O)C(=O)N[C@@H]3C(=O)O)cc1 (atropisomer, axis not shown)")
"0.5 to 1 µg/mL"

---

test system: Staphylococcus aureus 757 (MRSA); assay: MIC by broth microdilution, SA 757; format: cell-based; conditions: Staphylococcus aureus, MRSA, read-out: MIC SA 757
In this section, each of the molecules is paired with its reported MIC.
Readout label: MIC

>>> experimental_value("CCCCCOc1ccc(CCNC(=O)Oc2cc(O)c3c(c2)[C@@H](C(=O)NC2C4CC5CC(C4)CC2C5)NC(=O)[C@H]2NC(=O)[C@H](NC(=O)[C@@H]4NC(=O)[C@H](CC(N)=O)NC(=O)[C@H](NC(=O)[C@@H](CC(C)C)NC)[C@H](O)c5ccc(c(Cl)c5)Oc5cc4cc(c5O[C@@H]4O[C@H](CO)[C@@H](O)[C@H](O)[C@H]4O[C@H]4C[C@](C)(N)[C@H](O)[C@H](C)O4)Oc4ccc(cc4Cl)[C@H]2O)c2ccc(O)c-3c2)cc1 (some centres unmarked) [Compound 338]")
"0.01 to 0.5 µg/mL"
>>> experimental_value("CCCCCCCC(C)NC(=O)Oc1cc(O)c2c(c1)[C@@H](C(=O)NC1C3CC4CC(C3)CC1C4)NC(=O)[C@H]1NC(=O)[C@H](NC(=O)[C@@H]3NC(=O)[C@H](CC(N)=O)NC(=O)[C@H](NC(=O)[C@@H](CC(C)C)NC)[C@H](O)c4ccc(c(Cl)c4)Oc4cc3cc(c4O[C@@H]3O[C@H](CO)[C@@H](O)[C@H](O)[C@H]3O[C@H]3C[C@](C)(N)[C@H](O)[C@H](C)O3)Oc3ccc(cc3Cl)[C@H]1O)c1ccc(O)c-2c1 (some centres unmarked) [Compound 312]")
"0.01 to 0.5 µg/mL"
>>> experimental_value("CCCCCCc1ccc(S(=O)(=O)NCCCCCCNC(=O)Oc2cc(O)c3c(c2)[C@@H](C(=O)O)NC(=O)[C@H]2NC(=O)[C@H](NC(=O)[C@@H]4NC(=O)[C@H](CC(N)=O)NC(=O)[C@H](NC(=O)[C@@H](CC(C)C)NC)[C@H](O)c5ccc(c(Cl)c5)Oc5cc4cc(c5O[C@@H]4O[C@H](CO)[C@@H](O)[C@H](O)[C@H]4O[C@H]4C[C@](C)(N)[C@H](O)[C@H](C)O4)Oc4ccc(cc4Cl)[C@H]2O)c2ccc(O)c-3c2)cc1 (atropisomer, axis not shown) [Compound 352]")
"0.01 to 0.5 µg/mL"
>>> experimental_value("CCCCCOCCNC(=O)Oc1cc(O)c2c(c1)[C@@H](C(=O)O)NC(=O)[C@H]1NC(=O)[C@H](NC(=O)[C@@H]3NC(=O)[C@H](CC(N)=O)NC(=O)[C@H](NC(=O)[C@@H](CC(C)C)NC)[C@H](O)c4ccc(c(Cl)c4)Oc4cc3cc(c4O[C@@H]3O[C@H](CO)[C@@H](O)[C@H](O)[C@H]3O[C@H]3C[C@](C)(N)[C@H](O)[C@H](C)O3)Oc3ccc(cc3Cl)[C@H]1O)c1ccc(O)c-2c1 (atropisomer, axis not shown) [Compound 348]")
"2 to 4 µg/mL"
>>> experimental_value("CCCOc1ccc(NC(=O)Oc2cc(O)c3c(c2)[C@@H](C(=O)O)NC(=O)[C@H]2NC(=O)[C@H](NC(=O)[C@@H]4NC(=O)[C@H](CC(N)=O)NC(=O)[C@H](NC(=O)[C@@H](CC(C)C)NC)[C@H](O)c5ccc(c(Cl)c5)Oc5cc4cc(c5O[C@@H]4O[C@H](CO)[C@@H](O)[C@H](O)[C@H]4O[C@H]4C[C@](C)(N)[C@H](O)[C@H](C)O4)Oc4ccc(cc4Cl)[C@H]2O)c2ccc(O)c-3c2)cc1 (atropisomer, axis not shown) [Compound 329]")
"0.5 to 1 µg/mL"

---

Measured MIC by item
tested on: Staphylococcus aureus 757 (MRSA); test: MIC by broth microdilution, SA 757; assay type: cell-based; conditions: Staphylococcus aureus, MRSA, read-out: MIC SA 757
Readout label: MIC

>>> experimental_value("CCCCCCc1ccc(NC(=O)Oc2cc(O)c3c(c2)[C@@H](C(=O)NC2C4CC5CC(C4)CC2C5)NC(=O)[C@H]2NC(=O)[C@H](NC(=O)[C@@H]4NC(=O)[C@H](CC(N)=O)NC(=O)[C@H](NC(=O)[C@@H](CC(C)C)NC)[C@H](O)c5ccc(c(Cl)c5)Oc5cc4cc(c5O[C@@H]4O[C@H](CO)[C@@H](O)[C@H](O)[C@H]4O[C@H]4C[C@](C)(N)[C@H](O)[C@H](C)O4)Oc4ccc(cc4Cl)[C@H]2O)c2ccc(O)c-3c2)cc1 (some centres unmarked) [Compound 332]")
"1 to 2 µg/mL"
>>> experimental_value("CCCCCCCCNC(=O)Oc1cc(O)c2c(c1)[C@@H](C(=O)NC1C3CC4CC(C3)CC1C4)NC(=O)[C@H]1NC(=O)[C@H](NC(=O)[C@@H]3NC(=O)[C@H](CC(N)=O)NC(=O)[C@H](NC(=O)[C@@H](CC(C)C)NC)[C@H](O)c4ccc(c(Cl)c4)Oc4cc3cc(c4OC3OC(CO)C(O)C(O)C3OC3CC(C)(N)C(O)C(C)O3)Oc3ccc(cc3Cl)[C@H]1O)c1ccc(O)c-2c1 (some centres unmarked) [Compound 33]")
"0.01 to 0.5 µg/mL"
>>> experimental_value("CCCCOc1ccc(CCNC(=O)Oc2cc(O)c3c(c2)[C@@H](C(=O)O)NC(=O)[C@H]2NC(=O)[C@H](NC(=O)[C@@H]4NC(=O)[C@H](CC(N)=O)NC(=O)[C@H](NC(=O)[C@@H](CC(C)C)NC)[C@H](O)c5ccc(c(Cl)c5)Oc5cc4cc(c5O[C@@H]4O[C@H](CO)[C@@H](O)[C@H](O)[C@H]4O[C@H]4C[C@](C)(N)[C@H](O)[C@H](C)O4)Oc4ccc(cc4Cl)[C@H]2O)c2ccc(O)c-3c2)cc1 (atropisomer, axis not shown) [Compound 351]")
"0.01 to 0.5 µg/mL"
>>> experimental_value("CCCCCOc1ccc(S(=O)(=O)NCCCCCCNC(=O)Oc2cc(O)c3c(c2)[C@@H](C(=O)O)NC(=O)[C@H]2NC(=O)[C@H](NC(=O)[C@@H]4NC(=O)[C@H](CC(N)=O)NC(=O)[C@H](NC(=O)[C@@H](CC(C)C)NC)[C@H](O)c5ccc(c(Cl)c5)Oc5cc4cc(c5O[C@@H]4O[C@H](CO)[C@@H](O)[C@H](O)[C@H]4O[C@H]4C[C@](C)(N)[C@H](O)[C@H](C)O4)Oc4ccc(cc4Cl)[C@H]2O)c2ccc(O)c-3c2)cc1 (atropisomer, axis not shown) [Compound 322]")
"0.01 to 0.5 µg/mL"
>>> experimental_value("CCCCCOc1ccc(CCNC(=O)Oc2cc(O)c3c(c2)[C@@H](C(=O)O)NC(=O)[C@H]2NC(=O)[C@H](NC(=O)[C@@H]4NC(=O)[C@H](CC(N)=O)NC(=O)[C@H](NC(=O)[C@@H](CC(C)C)NC)[C@H](O)c5ccc(c(Cl)c5)Oc5cc4cc(c5O[C@@H]4O[C@H](CO)[C@@H](O)[C@H](O)[C@H]4O[C@H]4C[C@](C)(N)[C@H](O)[C@H](C)O4)Oc4ccc(cc4Cl)[C@H]2O)c2ccc(O)c-3c2)cc1 (atropisomer, axis not shown) [Compound 356]")
"0.01 to 0.5 µg/mL"
